assay: protein stability index of a GFP-peptide fusion (yeast GPS) (PSI 1-4); higher = more stable; sorted into four equal gates, so the index is relative within each strain; details: doa10∆
Threshold check on protein stability index: at or above 3 gives 1 (yes), strictly below gives 0 (no).

>>> assignedclass("HSFEDAHTPMLQMYSKI [FAS1]")
"0 (no)"
>>> assignedclass("GSAITGPVGKECADLWP [RPL23A]")
"0 (no)"
>>> assignedclass("GNIDTKNNILGSNVLKS [RRP43]")
"0 (no)"
>>> assignedclass("TLRCSVVEACGNIVAEL [YCS4]")
"0 (no)"
>>> assignedclass("NVSNTFNKTTNIDINNE [YJL041W/NSP1]")
"1 (yes)"
>>> assignedclass("EVLEKDAAIVKKYKNKT [YGR119C/NUP57]")
"1 (yes)"
>>> assignedclass("FQYGSRLPTFLKHKSIC [RPP1]")
"0 (no)"
>>> assignedclass("LIIIEKKQKLIEEQDKK [ITC1]")
"1 (yes)"

----------
experiment: protein stability index of a GFP-peptide fusion (yeast GPS) (PSI 1-4); higher = more stable; sorted into four equal gates, so the index is relative within each strain; settings: san1∆
Parameter protein stability index: see the listing below.
quantity: protein stability index

>>> reportedvalue("DDSTKFQLVNDVMDELI [SIR3]")
3.47
>>> reportedvalue("NTLRKCYPQFAERDSQG [UBP6]")
2.79
>>> reportedvalue("LLNRIPRMYHIGLRQFQ [POP1]")
1.72
>>> reportedvalue("SAGDDGKVRLWKATYSN [YGL100W/SEH1]")
2.74
>>> reportedvalue("DRVVSSDSLDIAQGIDL [SRP72]")
2.27
>>> reportedvalue("DDDISDDEEDEIEENCL [RPN4]")
3.14
>>> reportedvalue("TEKEEAVAKAAEKKVVR [RPL17A]")
3.24

----------
assay: protein stability index of a GFP-peptide fusion (yeast GPS) (PSI 1-4); higher = more stable; sorted into four equal gates, so the index is relative within each strain; details: ubr1∆
Parameter protein stability index: see the listing below.
quantity: protein stability index

>>> reportedvalue("KGEEAKLDSKKTVPFQV [SSN3]")
3.23
>>> reportedvalue("VIVELLPQSEWKAPSSI [DIS3]")
2.1
>>> reportedvalue("EQKLQTVLETLLSDVNQ [SMC3]")
1.22
>>> reportedvalue("TVPELEIPTQIYRTTRQ [ARP9]")
2.83
>>> reportedvalue("LFHFEEDEGEELTDEYL [PRP8]")
3
>>> reportedvalue("GYKSTVKSLRQGKSKLI [RPL30]")
1.48
>>> reportedvalue("SPSYSPTSPNYSPTSPS [RPO21]")
3.02
>>> reportedvalue("LTYAQQQLNKQRQDFER [SNF6]")
2.6
>>> reportedvalue("TDVEKSDPAAKKTATEP [SRP21]")
3.18
>>> reportedvalue("NEDENIQLIKILNSHFD [YJL041W/NSP1]")
2.85
>>> reportedvalue("IFSQMSRLLDILEDYCY [ISW2]")
3.01
>>> reportedvalue("ASTVAKTAPIQESFVPN [YOR098C/NUP1]")
3.21
>>> reportedvalue("DNTSHDEQDDDNVNSTT [BRN1]")
3.23
>>> reportedvalue("GNSEAIPGLSAGVNNDN [RTT102]")
3.47
>>> reportedvalue("RIARALKQEGAANKTVV [RPL18A]")
3.33
>>> reportedvalue("SEDLFADGLLQVLVCTA [BRR2]")
2.25
>>> reportedvalue("VKVLAATNRVDVLDPAL [RPT5]")
2.89
>>> reportedvalue("AAQTLLQMDYKDDMKVD [PRE9]")
3.26
>>> reportedvalue("IRAGEFDVVLTTFEYII [SNF2]")
2.59
>>> reportedvalue("KNIAQCLSDYTKKISNF [YJL039C/NUP192]")
1.49
>>> reportedvalue("SASKHEYSDNFPVSLSQ [SIR4]")
3.04
>>> reportedvalue("KIDKPIRTQVNTGGESV [RGR1]")
2.25
>>> reportedvalue("RFAFSVIWELDDSANIV [DIS3]")
2.62
>>> reportedvalue("LGGPITKESQPTIEEDL [FAS2]")
2.96
>>> reportedvalue("FLKKVMDTIQDKLINDV [ECM29]")
3.34
>>> reportedvalue("GKTDYYQRKRLVTQHKA [RPL5]")
3.69
>>> reportedvalue("LHDTQIEGKLHMATALQ [RPN10]")
2.38
>>> reportedvalue("VRYEEKRELKQLLEKAP [BRR2]")
2.4
>>> reportedvalue("SREIAQPSSSRYNGGND [SMB1]")
3.31
>>> reportedvalue("FALIDYFYDLDVLKDGE [BRN1]")
2.79
>>> reportedvalue("GVEEVEGEYELTEAVED [RPL5]")
3.24

----------
assay: protein stability index of a GFP-peptide fusion (yeast GPS) (PSI 1-4); higher = more stable; sorted into four equal gates, so the index is relative within each strain; details: ubr1∆
Threshold check on protein stability index: at or above 3 gives Met, strictly below gives Not met.

>>> assignedclass("LKRLAWQYIVIDEAHRI [ISW2]")
"Not met"
>>> assignedclass("PLLESFITFSLDDWISI [IRR1]")
"Not met"
>>> assignedclass("DDSTKFQLVNDVMDELI [SIR3]")
"Met"
>>> assignedclass("QIENLNEVCLEKENRFE [SMC4]")
"Met"
>>> assignedclass("QQQQTSPPPQTHQSPPP [SNF5]")
"Not met"
>>> assignedclass("ALTQMDQDKVNFASGDN [RPB3]")
"Met"
>>> assignedclass("RFKSQFLYVLIPAGIYW [QCR8]")
"Not met"
>>> assignedclass("KNDEVLGLLLPIAASTD [RPN1]")
"Not met"
>>> assignedclass("TPVSHNDDLYGKVTDVR [RPL1A]")
"Met"
>>> assignedclass("NKKIGKRPPEIMSTEAH [SIR4]")
"Met"
>>> assignedclass("DLENSPLKTELEANGRS [SSN2]")
"Met"
>>> assignedclass("GKASLFAQGKRRYDRKQ [RPL42A]")
"Met"
>>> assignedclass("DNGLGPLKYAPHLPFSK [SWI3]")
"Met"
>>> assignedclass("TTSEATANDRQINNVHL [RPN4]")
"Not met"
>>> assignedclass("LHEKYLTEGGSILEEKI [SMC1]")
"Met"
>>> assignedclass("TIKDLVGGKSTVQNEIL [FAS2]")
"Met"
>>> assignedclass("GKKKSATAVAHVKAGKG [RPS16A]")
"Not met"
>>> assignedclass("WLEEYHPKLIKNKSGKI [FAS1]")
"Not met"
>>> assignedclass("DILLRLCVLWDDLQSSV [YCG1]")
"Not met"
>>> assignedclass("ISSLGYRSHIFATNEER [SWI3]")
"Not met"
>>> assignedclass("PKDPSNVETYEQILQWV [BRR2]")
"Not met"
>>> assignedclass("IKDSVREVGTKFTTVLA [ECM29]")
"Not met"
>>> assignedclass("NYIINDIKKNNKIKLNI [SRB8]")
"Met"
>>> assignedclass("CLTKFQDEEQTEHLTEL [YCG1]")
"Not met"
>>> assignedclass("QQQMANNNGNPGTTSTG [GAL11]")
"Met"
>>> assignedclass("KVEKRVLGLTILRGEQI [SMB1]")
"Not met"
>>> assignedclass("MLWGGASMLGLFVFTEG [QCR10]")
"Met"

----------
assay: protein stability index of a GFP-peptide fusion (yeast GPS) (PSI 1-4); higher = more stable; sorted into four equal gates, so the index is relative within each strain; details: san1∆
quantity: protein stability index

>>> reportedvalue("KNISSQLDSKLMVFNDD [YGR119C/NUP57]")
2.24
>>> reportedvalue("TLLWNKNDKLIKIEDFV [SNF5]")
1.55
>>> reportedvalue("DATNTSYKMIQLDAYGE [SWP82]")
3.25
>>> reportedvalue("HHWLLDKLSGCYAPRPS [RPS4A]")
1.89
>>> reportedvalue("YGESDIHFREHQSELII [YMR129W/POM152]")
2.21
>>> reportedvalue("QAPKQRRRTYRAHGRIN [RPL17A]")
1.9
>>> reportedvalue("EEKEEENGDEDEDEDED [QCR6]")
3.27
>>> reportedvalue("LSDYNIQKESTLHLVLR [RPS31]")
2.23
>>> reportedvalue("PSLEVASEYIETLGLKY [FAS1]")
3.21
>>> reportedvalue("HRIGQKKQVHVYRFVTE [ISW2]")
2.28
>>> reportedvalue("LRKSELEYYAMLSKTKV [RPL30]")
2.17
>>> reportedvalue("FLYVLIPAGIYWYWWKN [QCR8]")
1.62
>>> reportedvalue("NSMEYTGKITKMFQDIR [CDC53]")
2.96
>>> reportedvalue("EIARQMRDKSFGRTLAS [RPL12A]")
2.88
